Test system: Maize
Assay: Pre-emergence test/Greenhouse, Maize
Format: in vivo
Settings: in vivo
MEASURED QUANTITY: degree of damage to the plants (% damage vs untreated control), Maize (%)
Give a bare numeral; the unit % is implied.

Request: # query: degree of damage to the plants (% damage vs untreated control), Maize | item CCCc1nn(C(=O)NS(=O)(=O)c2c(C)csc2C(=O)OCC)c(=O)n1C | system: Maize
Response: 0

Request: # query: degree of damage to the plants (% damage vs untreated control), Maize | item CCCOc1nn(C(=O)NS(=O)(=O)c2c(C)csc2C(=O)OC)c(=O)n1C | system: Maize
Response: 10

Request: # query: degree of damage to the plants (% damage vs untreated control), Maize | item COC(=O)c1cccc(C)c1S(=O)(=O)NC(=O)n1nc(OC(C)C)n(C2CC2)c1=O | system: Maize
Response: 40

Request: # query: degree of damage to the plants (% damage vs untreated control), Maize | item CCOC(=O)c1scc(C)c1S(=O)(=O)NC(=O)n1nc(OC(C)C)n(C)c1=O | system: Maize
Response: 0

Request: # query: degree of damage to the plants (% damage vs untreated control), Maize | item CCSc1nn(C(=O)NS(=O)(=O)c2c(C)cccc2C(=O)OC(C)C)c(=O)n1C | system: Maize
Response: 10

----------
Test system: Matricaria
Experiment: Pre-emergence test/Greenhouse, Matricaria
Assay type: in vivo
Conditions: 60 g of ai./ha, after three weeks
Protocol: To produce a suitable preparation of the active compound, 1 part by weight of active compound is mixed with the stated amount of solvent, the stated amount of emulsifier is added and the concentrate is diluted with water to the desired concentration. Seeds of the test plants are sown in normal soil. After about 24 hours, the soil is watered with the preparation of active compound. Advantageously, the amount of water per unit area is kept constant. […]
MEASURED QUANTITY: degree of damage to the plants (% damage vs untreated control), Matricaria (%)
Give a bare numeral; the unit % is implied.

Request: # query: degree of damage to the plants (% damage vs untreated control), Matricaria | item CCCc1nn(C(=O)NS(=O)(=O)c2c(C)csc2C(=O)OC)c(=O)n1OC | system: Matricaria
Response: 70

Request: # query: degree of damage to the plants (% damage vs untreated control), Matricaria | item COC(=O)c1scc(C)c1S(=O)(=O)NC(=O)n1nc(OC(C)C)n(C)c1=O | system: Matricaria
Response: 95

Request: # query: degree of damage to the plants (% damage vs untreated control), Matricaria | item COC(=O)c1cccc(C)c1S(=O)(=O)NC(=O)n1nc(OCC2CC2)n(C)c1=O | system: Matricaria
Response: 95

Request: # query: degree of damage to the plants (% damage vs untreated control), Matricaria | item CCn1c(OC)nn(C(=O)NS(=O)(=O)c2c(C)cccc2C(=O)OC(C)C)c1=O | system: Matricaria
Response: 95

Request: # query: degree of damage to the plants (% damage vs untreated control), Matricaria | item COc1nn(C(=O)NS(=O)(=O)c2c(C)csc2C(=O)OC(C)C)c(=O)n1C | system: Matricaria
Response: 100

Request: # query: degree of damage to the plants (% damage vs untreated control), Matricaria | item CCOc1nn(C(=O)NS(=O)(=O)c2c(C)cccc2C(=O)OC(C)C)c(=O)n1CC | system: Matricaria
Response: 95

Request: # query: degree of damage to the plants (% damage vs untreated control), Matricaria | item C#CCSc1nn(C(=O)NS(=O)(=O)c2c(C)cccc2C(=O)OC)c(=O)n1C1CC1 | system: Matricaria
Response: 95

Request: # query: degree of damage to the plants (% damage vs untreated control), Matricaria | item CCOc1nn(C(=O)NS(=O)(=O)c2c(C)csc2C(=O)OC(C)C)c(=O)n1C | system: Matricaria
Response: 100

Request: # query: degree of damage to the plants (% damage vs untreated control), Matricaria | item CCSc1nn(C(=O)NS(=O)(=O)c2c(C)cccc2C(=O)OC(C)C)c(=O)n1C | system: Matricaria
Response: 95
